Where do the numbers come from? From PubChem BioAssay (NCATS).

Test: S16 Schwann cell PMP22 intronic element firefly luciferase assay (AID 624032); note: nearly all actives have a fitted effect of over 30% in size; note: potency is the fitted concentration of half-maximal effect
Settings: S16 rat Schwann cells, PMP22 element FLuc, 24 h; series mostly up to 57.5 µM
Records with an inconclusive call do not appear. Active and inactive are the calls of the source. Calls come from the whole dose curve; as a rule, active = well fitted inhibition curve with a large enough effect; inconclusive = small, poorly fitted or top-dose-only effect; inactive = no such curve, though single readings can be large or run the other way.
assay metric: Potency

Solved entries:
INSERT INTO results (compound, assay_metric, result) VALUES
  ('CC(C)(CO)C(O)C(=O)NCCCC(=O)O (configuration not stated)', 'Potency', 'inactive'),
  ('S=C1NC=NC2N=CNC12 (configuration not stated)', 'Potency', '2.87 µM (active)'),
  ('CC(=O)OC1CC2CCC1(C)C2(C)C (configuration not stated)', 'Potency', 'inactive'),
  ('O=NCc1ccc([N+](=O)[O-])o1', 'Potency', '12.8 µM (active)');

Consider the compound shown here: CCC(C)n1ncn(-c2ccc(N3CCN(c4ccc(OCC5COC(Cn6cncn6)(c6ccc(Cl)cc6Cl)O5)cc4)CC3)cc2)c1=O (configuration not stated) What is its recorded Potency?
3.22 µM (active)

Consider the compound shown here: "CO/N=C(/C(=O)N[C@@H]1C(=O)N2C(C(=O)O)=CCS[C@H]12)c1csc(N)n1" What is its recorded Potency?
inactive

Consider the compound shown here: "CC(C)CN(C[C@@H](O)[C@H](Cc1ccccc1)NC(=O)O[C@H]1CCOC1)S(=O)(=O)c1ccc(N)cc1" What is its recorded Potency?
inactive

Consider the compound shown here: "CC1(C)S[C@@H]2[C@H](NC(=O)COc3ccccc3)C(=O)N2[C@H]1C(=O)O" What is its recorded Potency?
inactive

Consider the compound shown here: Cc1cc(CC(C)CC(C)(C)C)n(O)c(=O)c1 (configuration not stated) What is its recorded Potency?
16.1 µM (active)

Consider the compound shown here: "CN1CC[C@H](CN2c3ccccc3Sc3ccccc32)C1" What is its recorded Potency?
32.2 µM (active)

Consider the compound shown here: CC1CCC(C(C)C)C(OC(=O)c2ccccc2O)C1 (configuration not stated) What is its recorded Potency?
inactive

Consider the compound shown here: O=C(O)c1cc(O)c2c(c1)[C@H]([C@H]1c3cc(C(=O)O)cc(O)c3C(=O)c3c(O[C@@H]4OC(CO)C(O)C(O)C4O)cccc31)c1cccc(O[C@@H]3OC(CO)C(O)C(O)C3O)c1C2=O (some centres not stated) What is its recorded Potency?
inactive

###

Assay: qHTS for differential inhibitors of proliferation of Plasmodium falciparum line W2 (AID 1883);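 note: parasites grown with compound for 72 h before lysis and staining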
Settings: Plasmodium falciparum W2 proliferation inhibition; series mostly up to 28.7 µM
Records with an inconclusive call do not appear. The source made the active and inactive calls. Calls come from the whole dose curve; as a rule, active = well fitted curve in the direction sought with a large enough effect; inconclusive = small, poorly fitted or top-dose-only effect, or another doubt; inactive = no such curve, though single readings can be large or run the other way.
Valid outcomes are listed here; reply with one: active, inactive

// known answers, use as guide
INSERT INTO assay_data (compound, category_label) VALUES
  ('C[C@]12C[C@H](O)C3[C@@H](CCC4=CC(=O)CC[C@@]43C)[C@@H]1CC[C@@H]2C(=O)CO (stereo not given in full)', 'active'),
  ('O=S(=O)(O)C1CCNCC1', 'inactive'),
  ('Cc1cc(N)c2ccccc2[n+]1CCCCCCCCCCCCCC[n+]1c(C)cc(N)c2ccccc21', 'active'),
  ('CCCCN1CCC(COC(=O)c2cc(Cl)c(N)c3c2OCCO3)CC1', 'active');

# ---- query compound ----
How did this test come out for Cc1c(C)c2c(c(C)c1O)CCC(C)(CN1CCN(c3cc(N4CCCC4)nc(N4CCCC4)n3)CC1)O2 (stereo not given) ?
active

###

Target: Rap guanine nucleotide exchange factor 3 (Homo sapiens)
Test: Counterscreen qHTS for antagonist of cAMP-regulated guanine nucleotide exchange factor 3 (EPAC1) (AID 1645888);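 note: fluorescence loss as bound BODIPY-GDP is released from Rap1B; % of control where 0% means no effect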
Conditions: Rap1B-BODIPY-GDP nucleotide exchange, fluorescence; series mostly up to 154 µM
Description: Assay Provider (PI): Xiaodong Cheng Ph.D. The University of Texas Medical Branch, […], TX MLPCN Grant: NS066510 In multi-cellular eukaryotic organisms, the effects of cAMP are transduced by two ubiquitously-expressed intracellular cAMP receptors, the classic protein kinase A/cAMP-dependent protein kinase (PKA/cAPK) and the more recently discovered exchange protein directly activated by cAMP/cAMP-regulated guanine nucleotide exchange factor (EPAC/cAMP-GEF). […]
Inconclusive results are not listed. Activity calls are given as the source filed them. Calls follow the shape of the dose curve; as a rule, active = well fitted inhibition curve with a large enough effect; inconclusive = small, poorly fitted or top-dose-only effect; inactive = no such curve, though single readings can be large or run the other way.
assay metric: activity change, negative = inhibition

INSERT INTO assay_data (compound, result) VALUES
  ('Cc1ccn2cc(-c3cccc(NC(=O)c4cccs4)c3)nc2c1', 'inactive'),
  ('O=C(O)c1sccc1SCc1ccc(Cl)c(Cl)c1', 'inactive'),
  ('CS/C(=C\C(=O)c1ccco1)Nc1ccccc1Cl', 'inactive'),
  ('CC(C)Cn1nc(NS(=O)(=O)c2cccc3nonc23)c2cc3ccccc3nc21', 'inactive'),
  ('Cc1ccc(CNc2cc(C)nc3nc(-c4cccc(C)c4)nn23)cc1', 'inactive');

Consider the compound shown here: "CCOc1ccc(-n2cnc3scc(-c4ccc(OC)c(OC)c4)c3c2=O)cc1" What is its recorded activity change, negative = inhibition?
inactive

Consider the compound shown here: "COc1cc(/C=C2\C(=N)N3N=C(S(C)(=O)=O)SC3=NC2=O)ccc1OS(=O)(=O)c1ccc(C)cc1" What is its recorded activity change, negative = inhibition?
inactive

Consider the compound shown here: "O=C(Cc1ccc(Br)c2ccccc12)N/N=C/c1ccccn1" What is its recorded activity change, negative = inhibition?
inactive

Consider the compound shown here: "O=C(COc1ccccc1Br)Nc1ccccc1C(F)(F)F" What is its recorded activity change, negative = inhibition?
inactive

Consider the compound shown here: "CC(C)CCNC(=O)c1cnn2c(C(F)(F)F)cc(-c3ccco3)nc12" What is its recorded activity change, negative = inhibition?
inactive

Consider the compound shown here: "O=C1CCC/C(=N/NC(=O)c2sc3ccccc3c2Cl)C1" What is its recorded activity change, negative = inhibition?
inactive

Consider the compound shown here: "COc1ccc(Nc2cccc3ccccc23)cc1" What is its recorded activity change, negative = inhibition?
inactive

Consider the compound shown here: "CN1CCc2nc3sc(C(=O)C45CC6CC(CC(C6)C4)C5)c(N)c3cc2C1" What is its recorded activity change, negative = inhibition?
inactive

Consider the compound shown here: "O=C(COC(=O)c1ccc2c(c1)C(=O)N(Cc1ccncc1)C2=O)Nc1ccccc1[N+](=O)[O-]" What is its recorded activity change, negative = inhibition?
inactive

Consider the compound shown here: "CCN(CC)c1ccc(/C=c2\sc3nc4ccccc4n3c2=O)c(O)c1" What is its recorded activity change, negative = inhibition?
inactive

Consider the compound shown here: "Cc1cccc(Nc2nnc(-c3ccc(N4CCOCC4)c([N+](=O)[O-])c3)c3ccccc23)c1" What is its recorded activity change, negative = inhibition?
inactive

Consider the compound shown here: "CNC(=O)COC(=O)c1cc(-c2ccco2)nc2ccccc12" What is its recorded activity change, negative = inhibition?
inactive

Consider the compound shown here: "CCc1cccc(NC(=O)COC(=O)/C=C/c2cccs2)c1" What is its recorded activity change, negative = inhibition?
inactive

Consider the compound shown here: "COc1cccc(C(=O)c2sc3nc(-c4ccccc4)cc(C(F)(F)F)c3c2N)c1" What is its recorded activity change, negative = inhibition?
inactive

###

Molecular target: Rap guanine nucleotide exchange factor 3 (Homo sapiens) (UniProt O95398)
Sequence (O95398 whole entry, looked up): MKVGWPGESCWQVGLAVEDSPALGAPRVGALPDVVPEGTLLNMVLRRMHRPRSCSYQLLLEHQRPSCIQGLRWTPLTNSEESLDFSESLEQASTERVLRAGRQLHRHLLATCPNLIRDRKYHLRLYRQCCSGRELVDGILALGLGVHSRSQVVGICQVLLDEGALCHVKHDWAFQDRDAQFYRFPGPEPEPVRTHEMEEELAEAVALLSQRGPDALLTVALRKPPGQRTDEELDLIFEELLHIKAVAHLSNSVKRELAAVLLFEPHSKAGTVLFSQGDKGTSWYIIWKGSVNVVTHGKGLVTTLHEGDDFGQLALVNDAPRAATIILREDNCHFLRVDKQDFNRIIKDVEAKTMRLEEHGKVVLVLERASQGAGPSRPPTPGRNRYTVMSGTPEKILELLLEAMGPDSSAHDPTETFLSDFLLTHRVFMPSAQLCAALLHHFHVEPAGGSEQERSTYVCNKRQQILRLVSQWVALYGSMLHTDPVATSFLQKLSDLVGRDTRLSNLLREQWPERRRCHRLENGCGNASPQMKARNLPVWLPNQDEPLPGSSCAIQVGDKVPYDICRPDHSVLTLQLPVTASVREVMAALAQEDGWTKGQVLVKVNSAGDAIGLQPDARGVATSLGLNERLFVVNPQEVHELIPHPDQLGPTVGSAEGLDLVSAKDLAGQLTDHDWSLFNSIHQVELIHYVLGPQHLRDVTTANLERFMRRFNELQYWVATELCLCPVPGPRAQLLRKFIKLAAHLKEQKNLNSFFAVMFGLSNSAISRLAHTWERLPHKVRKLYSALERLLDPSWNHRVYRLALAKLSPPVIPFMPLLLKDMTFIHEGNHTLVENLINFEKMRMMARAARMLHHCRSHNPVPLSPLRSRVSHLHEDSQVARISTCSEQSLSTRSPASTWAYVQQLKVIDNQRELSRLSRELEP
Test: Counterscreen qHTS for antagonist of cAMP-regulated guanine nucleotide exchange factor 3 (EPAC1) (AID 1645888);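 note: fluorescence loss as bound BODIPY-GDP is released from Rap1B; % of control where 0% means no effect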
Conditions: Rap1B-BODIPY-GDP nucleotide exchange, fluorescence; series mostly up to 154 µM
Results filed as inconclusive are left out. Calls of active or inactive are those of the source. Calls come from the whole dose curve; as a rule, active = well fitted inhibition curve with a large enough effect; inconclusive = small, poorly fitted or top-dose-only effect; inactive = no such curve, though single readings can be large or run the other way.
assay metric: activity change, negative = inhibition

INSERT INTO results (molecule, measured_target, result) VALUES
  ('COc1ccc(-c2cc(C(F)(F)F)c3c(n2)sc2c(O)cc(=O)[nH]c23)c(OC)c1', 'Rap guanine nucleotide exchange factor 3 (Homo sapiens) (UniProt O95398)', 'inactive'),
  ('CCOc1ncccc1C(=O)OC(C)C(=O)Nc1ccc(Cl)cn1 (stereo not drawn)', 'Rap guanine nucleotide exchange factor 3 (Homo sapiens) (UniProt O95398)', '-16.3% [at 30.8 µM] (inactive)'),
  ('NC(=O)C1CCN(C(=O)c2ccc3c(=O)n(Cc4cccc(Br)c4)c(=S)[nH]c3c2)CC1', 'Rap guanine nucleotide exchange factor 3 (Homo sapiens) (UniProt O95398)', '-4.35% [at 30.8 µM] (inactive)'),
  ('CC(Oc1ccc(Cl)cc1)C(=O)Nc1sccc1C(N)=O (stereo not drawn)', 'Rap guanine nucleotide exchange factor 3 (Homo sapiens) (UniProt O95398)', '-14.6% [at 30.8 µM] (inactive)'),
  ('CCCOc1ccccc1NC(=O)c1c(-c2ccccc2)noc1C', 'Rap guanine nucleotide exchange factor 3 (Homo sapiens) (UniProt O95398)', 'inactive'),
  ('Cc1ncc(CO)c2c1Oc1nc(-c3ccccc3F)nc(SCC(=O)N(C)c3ccccc3)c1C2', 'Rap guanine nucleotide exchange factor 3 (Homo sapiens) (UniProt O95398)', 'inactive'),
  ('CCOC(=O)Nc1cc2c(c(N)n1)N=C(c1ccccc1)CN2', 'Rap guanine nucleotide exchange factor 3 (Homo sapiens) (UniProt O95398)', 'inactive'),
  ('CC(C)(C)NC(=O)NC(=O)CN1CCN(S(=O)(=O)c2ccc3c(c2)CCCC3)CC1', 'Rap guanine nucleotide exchange factor 3 (Homo sapiens) (UniProt O95398)', '-44% [at 30.8 µM] (inactive)');

Which activity change, negative = inhibition is reported with Rap guanine nucleotide exchange factor 3 (Homo sapiens) (UniProt O95398) for this entry: "Cc1ccc(N(Cc2cccs2)C(=O)c2ccco2)cc1" ?
inactive

Which activity change, negative = inhibition is reported with Rap guanine nucleotide exchange factor 3 (Homo sapiens) (UniProt O95398) for this entry: "COc1ccc(-c2cnnc(N/N=C/c3ccc(O)c(O)c3)n2)cc1" ?
inactive

Which activity change, negative = inhibition is reported with Rap guanine nucleotide exchange factor 3 (Homo sapiens) (UniProt O95398) for this entry: "CCN(CC)c1ccc(/C=C/C(=O)c2ccc(Br)cc2)cc1" ?
192% [at 30.8 µM] (inactive)

Which activity change, negative = inhibition is reported with Rap guanine nucleotide exchange factor 3 (Homo sapiens) (UniProt O95398) for this entry: "Clc1ccc(-c2nnc(-c3ccco3)nc2N2CCCCC2)cc1" ?
13.5% [at 30.8 µM] (inactive)

Which activity change, negative = inhibition is reported with Rap guanine nucleotide exchange factor 3 (Homo sapiens) (UniProt O95398) for this entry: "COc1c(Cl)cc(Cl)cc1CNc1ccc(S(N)(=O)=O)cc1" ?
inactive

Which activity change, negative = inhibition is reported with Rap guanine nucleotide exchange factor 3 (Homo sapiens) (UniProt O95398) for this entry: "Cc1cc(C)c(S(=O)(=O)N2CCCC2)c(C)c1" ?
inactive

Which activity change, negative = inhibition is reported with Rap guanine nucleotide exchange factor 3 (Homo sapiens) (UniProt O95398) for this entry: "Cc1ccc2cccc(Oc3nnnn3-c3ccccc3)c2n1" ?
inactive

Which activity change, negative = inhibition is reported with Rap guanine nucleotide exchange factor 3 (Homo sapiens) (UniProt O95398) for this entry: "Cc1cc(C)cc(NC(=O)c2sc3nc(-c4cc5ccccc5oc4=O)[nH]c(=O)c3c2C)c1" ?
inactive

Which activity change, negative = inhibition is reported with Rap guanine nucleotide exchange factor 3 (Homo sapiens) (UniProt O95398) for this entry: "O=C(C1CC1)N1c2ccccc2Sc2ccccc21" ?
inactive
